METHOD DESCRIPTION: qHTS Assay for Inhibitors of Hepatitis C Virus (HCV)
SETUP CONDITIONS: Huh7.5.1 HCVcc-Cre infection, luciferase reporter, 44 h; series mostly up to 41.8 µM
Screen size: about 340,000 compounds; about 12,000 (3.5%) were called active. About 18% were inconclusive and are not listed. Calls come from the whole dose curve; as a rule, active = well fitted inhibition curve with a large enough effect; inconclusive = small, poorly fitted or top-dose-only effect, or another doubt; inactive = no such curve, though single readings can be large or run the other way. This excerpt belongs to a sample that is enriched for actives.
Outcome codes: active, inactive

INSERT INTO results (compound, category) VALUES
  ('Cc1nc(Nc2ccc3c(c2)OCCO3)c2nnn(Cc3ccccc3Cl)c2n1', 'active'),
  ('Cn1c(Cc2cccc3ccccc23)nnc1SCC(=O)N1CCN(c2cccc(Cl)c2)CC1', 'active'),
  ('COc1cc(-n2c(=S)[nH]c3ccc(C)cc3c2=O)c(Cl)cc1Cl', 'active'),
  ('O=c1nc(NO)ccn1C1CCCO1 (stereo not given)', 'inactive'),
  ('COc1ccc(OC)c(-n2c(=S)[nH]c3cc(C(=O)N4CCCCC4)ccc3c2=O)c1', 'inactive'),
  ('CCCCCCCCn1c2c(c(=N)c3c1CCC3)CCCC2', 'active'),
  ('Cn1c(CNC(=O)c2ccco2)nnc1SCC(=O)N1CCN(c2ccccc2)CC1', 'inactive'),
  ('CCOC(=O)[C@H]1[C@H]2COc3ccc(Br)cc3[C@@H]2N2C(=O)CN(C)C(=O)[C@@]12C', 'inactive'),
  ('O=C(COC(=O)/C=C/c1cccc(Cl)c1)NCc1cccs1', 'inactive'),
  ('Cc1cc2nnc(SCC(=O)N3CCN(c4ccccc4)CC3)n2c(N)n1', 'inactive');

====

METHOD DESCRIPTION: qHTS Assay for Inhibitors of Hepatitis C Virus (HCV)
SETUP CONDITIONS: Huh7.5.1 HCVcc-Cre infection, luciferase reporter, 44 h; series mostly up to 41.8 µM
In all, about 340,000 compounds went through this assay and about 12,000 (3.5%) were called active. Roughly 18% stayed inconclusive and do not appear here. The call rests on the fitted dose curve; in most records, active means well fitted inhibition curve with a large enough effect; inconclusive means small, poorly fitted or top-dose-only effect, or another doubt; inactive means no such curve, though single readings can be large or run the other way. Shown is part of a subset that was picked to be rich in actives.
Outcome codes: true (active), false (inactive)

INSERT INTO results (molecule, category) VALUES
  ('COC(=O)c1ccc(-c2c(-c3ccccc3)ncc3cc(OC)c(OC)cc23)cc1', 'false'),
  ('COc1ccccc1NS(=O)(=O)c1ccc(C)c(C(=O)NNC(=O)c2csc(N3CCOCC3)n2)c1', 'false'),
  ('Cc1ccc(NC(=O)CN(C)C(=O)Cn2nnc(-c3ccccc3)n2)cc1', 'false'),
  ('O=C1OC[C@@H]2CCCN2C(=O)[C@H](CC(=O)N(CCO)Cc2ccccc2)C/C=C\CC[C@@H]1Cc1ccc(F)cc1', 'false'),
  ('O=S(=O)(Nc1ccc(O)c2ccccc12)c1ccc(OC(F)(F)F)cc1', 'false'),
  ('CC(=O)Nc1ccc(S(=O)(=O)NCC(=O)OCC(=O)c2ccc[nH]2)cc1', 'false'),
  ('O=C(NCCc1ccccc1)c1cccc(NC(=O)c2ccccc2)c1', 'false'),
  ('COCCn1c(SCc2nc3cc(OC)c(OC)cc3c(=O)[nH]2)nnc1-c1ccncc1', 'false'),
  ('Cc1ccc(Br)c(NS(=O)(=O)c2cccc(C(=O)N3CCNC(=O)C3)c2)c1', 'false'),
  ('O=C1COc2ccc(C(=O)COC(=O)CCOc3ccccc3)cc2N1', 'false'),
  ('O=C(CC1SC(N2CCOCC2)=NC1=O)Nc1ccccc1F (centres undefined)', 'false'),
  ('CCC(C)N(C(=O)CSc1nnnn1-c1ccccc1OC)C1CCS(=O)(=O)C1 (centres undefined)', 'false'),
  ('CCOc1cc(C(=S)N2CCOCC2)ccc1OS(=O)(=O)c1ccc(Br)cc1', 'true'),
  ('CN(CCc1ccccc1)C(=O)c1cccc(NC(=O)Cc2cccc(NC(=O)C3CCCN(C(=O)CCc4ccccc4)C3)c2)c1 (centres undefined)', 'true'),
  ('Cc1ccc(C(=O)CN2C(=O)NC3(CCOc4ccccc43)C2=O)s1 (centres undefined)', 'false'),
  ('O=C(COC(=O)c1cc[n+]([O-])cc1)Nc1ccc(Cl)c(C(F)(F)F)c1', 'false'),
  ('COc1cccc(CSc2nc3nc(C)cc(C)n3n2)c1', 'false'),
  ('COc1ccc(C(=O)N2CC3(C)CC2CC(C)(C)C3)cc1OC (centres undefined)', 'false'),
  ('COCCCn1c(SCc2cccc(OC)c2)nc2cc(OC)c(OC)cc2c1=N', 'true'),
  ('CCOc1ccc(Br)cc1CSC(=N)N', 'true'),
  ('Cc1ccc(S(=O)(=O)N2[C@@H](c3ccc(Br)cc3)C(C(=O)O)=C[C@H]2CC2CCCC2)cc1', 'false'),
  ('CC(C)C(NC(=O)c1c(F)cccc1F)C(=O)NNC(=O)c1ccccc1 (centres undefined)', 'false'),
  ('CN(C)C(=O)CCc1ccc2c3c([nH]c2c1)[C@]1(CCc2ccccc2)[C@@H](C(=O)N2CCCCC2)C[C@H](CC(=O)NCCC2=CCCCC2)C(=O)N1CC3', 'false'),
  ('O=C1OC(/C=C/c2ccccc2)=NC/1=C/c1ccco1', 'false'),
  ('COc1ccc(Nc2ccc3ccccc3c2)cc1', 'false'),
  ('CC(=O)Nc1ccc(S(=O)(=O)Oc2ccc(Br)cc2C(=S)N2CCOCC2)cc1', 'false'),
  ('COc1ccccc1/C=C/C1=NC(=C\N(C)C)/C(=O)O1', 'true'),
  ('CC(CN1CCOCC1)c1ccccc1 (centres undefined)', 'false'),
  ('CCOC(=O)[C@H]1[C@H]2COc3ccc(OC)cc3[C@@H]2N2C(=O)c3ccc(F)cc3NC(=O)[C@@]12C', 'false'),
  ('O=C1N/C(=C/c2cccn2-c2ccccc2)C(=O)N1c1cccc(Cl)c1', 'false'),
  ('COc1ccccc1/C=C/C(=O)NC(=S)N1CCOCC1', 'false'),
  ('OC(c1ccccc1)C(CN1CCOCC1)c1ccccc1 (centres undefined)', 'true'),
  ('CC1(C)CC2CC(C)(CN2c2ncnc3ccc(Br)cc23)C1 (centres undefined)', 'true'),
  ('COc1ccccc1C(=O)N1CC2(C)CC1CC(C)(C)C2 (centres undefined)', 'false'),
  ('CSc1ccc(/C=C2\NC(=O)NC2=O)cc1', 'false'),
  ('O=C(CCCOc1ccccc1)NNC(=O)c1ccc(Cl)cc1', 'false'),
  ('COc1ccc(OCCCCN2CCC(C)CC2)cc1', 'false'),
  ('OC(c1ccc(Cl)cc1)C(CN1CCOCC1)c1ccccc1 (centres undefined)', 'false'),
  ('CN(C)C(CNC(=O)Cc1ccc([N+](=O)[O-])cc1)c1ccccc1 (centres undefined)', 'false'),
  ('O=C1/C(=C\c2ccsc2)NC(=S)N1c1ccccc1', 'true'),
  ('O=C(COC(=O)Cc1ccc([N+](=O)[O-])cc1)NC1CCCCCC1', 'false'),
  ('Nc1c(-c2ccccc2)nnn1Cc1ccccc1', 'false'),
  ('CC(C#N)(NC(=O)CN1CCN(S(=O)(=O)c2cc(C(F)(F)F)ccc2Cl)CC1)C1CC1 (centres undefined)', 'false'),
  ('CC(CC(=O)O)CC(=O)NNC(=O)c1cccc(Br)c1 (centres undefined)', 'false');

Every entry's value here was drawn from PubChem BioAssay AID651820.
